system: UACC-257; test: NCI tumour cell line growth inhibition, 48 h
Activity calls are given as the source filed them. Cut-off read from the data, not from the text of the source: active = GI50 up to about 1.1 µM and inactive = higher.
Assay readout: GI50

Look at this molecule and give its reported GI50. O=c1[nH]c(=O)n(C2OC(CO)C(O)C2O)c2ccsc12 (stereo unspecified)
> 100 µM (inactive)

Entry O/N=C1/C(=C/c2ccc(Oc3ccccc3)cc2)CCCC1C(NO)c1ccc(Oc2ccccc2)cc1 (stereo unspecified) : reported GI50 = ?
50.1 µM (inactive)

What value of GI50 has been recorded for this entry: `Oc1cc2cc(O)nc(O)c2c(O)n1`
> 100 µM (inactive)

For `C[C@H](N)C(=O)N[C@@H]1[C@H]2C(=C(O)C[C@@H](O)[C@@H]2O)C(=O)O[C@@H]1C` , what is its reported GI50?
> 100 µM (inactive)

Please look up its GI50: `Nc1nc(Cl)cc(OCC2(CO)CCCC2)n1`
> 100 µM (inactive)

State the recorded GI50 for this entry: `O=C(OCc1nc2ccc(Br)cc2c(=O)n1-c1ccccc1)c1ccccc1O`
61.5 µM (inactive)

Which GI50 reading was recorded for the molecule CCOC(=O)C1CCCCN1C(=O)Cc1c[nH]c2ccccc12 (stereo unspecified) ?
79.3 µM (inactive)

I am curious: what GI50 value has been reported for C[N+](C)(C)CC1CCCCCCCCCCC1=O (stereo unspecified) ?
> 100 µM (inactive)

Any idea what GI50 was measured for `O=C1C[C@H](c2ccc(O)c(O)c2)Oc2cc(O)cc(O)c21` ?
> 100 µM (inactive)

So what's the measured GI50 for this one? `NCCCN(CCCCN(CCCN)CCCc1ccccc1)CCCc1ccccc1`
1.79 µM (inactive)

Could you tell me which GI50 is on file for `COc1cc(OC)cc(-c2nc3cc(F)ccc3s2)c1` ?
> 100 µM (inactive)

* * *

Consider the following compounds; for each one, report its GI50.
system: TK-10; assay: NCI tumour cell line growth inhibition, 48 h
Activity calls are given as the source filed them. Rule as the data show it: active = GI50 up to about 1.1 µM and inactive = higher.

Which GI50 value is on record for `O=C(O)c1ccccc1[Se][Se]c1ccccc1C(=O)O` ?
> 100 µM (inactive)

Need GI50 of `O=C(Nn1c(-c2ccccc2)nc2ccccc2c1=O)c1ccc([N+](=O)[O-])cc1` , thanks.
> 100 µM (inactive)

Return reported GI50; argument: `COc1ccc(C(=O)Cn2c(C(=O)/C=C/c3ccco3)nc3ccccc32)cc1`
44.8 µM (inactive)

Fill in: GI50 of `COc1c(-c2cccs2)oc2c(CC(=O)O)cccc2c1=O` is ___
> 100 µM (inactive)

What value of GI50 has been recorded for this entry: `Cc1ccc(S(=O)(=O)N2CCN(S(=O)(=O)c3ccc(C)cc3)CCN(S(=O)(=O)c3ccc(C)cc3)Cc3cc(Br)c(Br)cc3CN(S(=O)(=O)c3ccc(C)cc3)CC2)cc1`
69.5 µM (inactive)

I am curious: what GI50 value has been reported for `O=C1C=CC2(C=C1)C[C@H](NC(=O)OCc1ccccc1)C(=O)O2` ?
15.2 µM (inactive)

Fill in: GI50 of Nc1nc(Cl)c(N)c(NCC2(CO)CC(Cc3ccccc3)C2)n1 (centres undefined) is ___
> 100 µM (inactive)

Consider the compound shown here: `COc1ccccc1OCC(=N/NC(=O)c1ccncc1)/N=C/c1ccncc1` What is its recorded GI50?
> 100 µM (inactive)

Tell me the measured GI50 of Cn1nc(C(=O)N2CC(CCl)c3c2cc([N+](=O)[O-])c2ccccc32)cc1NC(=O)Nc1cc(C(=O)N2CC(CCl)c3c2cc([N+](=O)[O-])c2ccccc32)nn1C (centres undefined) , please.
> 100 µM (inactive)

* * *

system: KM12; test: NCI tumour cell line growth inhibition, 48 h
Counter-ions that a name gives are not always drawn. Calls of active or inactive are those of the source. Rule as the data show it: active = GI50 up to about 1.1 µM and inactive = higher.
Assay readout: GI50

Lab request: please report GI50 under test system KM12 for `COc1ccc(C(=O)Cn2c(C(=O)/C=C/c3ccco3)nc3ccccc32)cc1`
28.3 µM (inactive)

GET /values?readout=GI50&system=KM12&item= `COc1ccc(C(=C2C=CC=C2)c2ccc(OC)cc2)cc1`
45.9 µM (inactive)

KM12 / GI50 / `COC(=O)c1cc(C#N)[nH]c1-c1ccsc1` : value?
> 100 µM (inactive)

Lab note: need GI50 with KM12 for entry CCOC(=O)C(NC(=O)c1ccccc1)(N1CCOCC1)C(F)(F)F (configuration not stated) , please look it up.
> 100 µM (inactive)

Request - read-out GI50 | tested on KM12 | molecule `COc1cc2c(cc1OCc1ccccc1)NC(=O)[C@@H]1C[C@@H](O)CN1C2=O`
> 100 µM (inactive)

Missing value: GI50, KM12, entry `Cc1nc2ccc(S(=O)(=O)Nc3ccc(Cl)cc3)cc2c(=O)n1NC(=O)CNc1ccc(Cl)cc1` . Fill in?
64 µM (inactive)

Query GI50 on KM12 for COc1cccc(C2c3cc4c(cc3OC(N3CCOCC3)C2C)OCO4)c1O (configuration not stated)
3.48 µM (inactive)

# get_value(readout= GI50, system= KM12) for `CCOC(=O)[C@@]12NN=N[C@@H]1[C@H]1CO[C@H](c3ccccc3)N1C2=O`
13.1 µM (inactive)

// map CN(C)C(Cc1c[nH]cn1)C(=O)N1CCCC1C(N)=O (configuration not stated) to recorded GI50 (system: KM12)
> 100 µM (inactive)

Request: GI50, test system KM12, entry NC(Cc1ccc(S(=O)(=O)O)cc1)C(=O)NC(Cc1ccc(S(=O)(=O)O)cc1)C(=O)O (configuration not stated)
> 100 µM (inactive)

Please state recorded GI50 (tested on KM12) of `O=C(Nn1c(-c2ccccc2)nc2ccccc2c1=O)c1ccc([N+](=O)[O-])cc1`
> 100 µM (inactive)

Query for KM12: what GI50 does the record show for CC(C)/C=C1\CCC(CN2CCCC2)C1=O (configuration not stated) ?
10 µM (inactive)

What is its GI50 for KM12? Entry: COc1cc(C2c3cc4c(cc3[C@@H](Nc3ccc(F)cc3)C3CO[C@@H](O)[C@H]23)OCO4)cc(OC)c1O (some centres not stated)
5.66 µM (inactive)

Give GI50 (KM12) of the following molecule: `CC1=Nc2nc(Cl)cn2C(=O)C1(Cl)Cl`
> 10 µM (inactive)

Find the measured GI50: item `CCOC(=O)c1c(SCC#N)n(-c2ccccc2)c(=S)n(-c2ccccc2)c1=O` , target or system KM12.
47 µM (inactive)

State its GI50 on KM12: `COc1ccc2[nH]c3c(c2c1)[C@H](C)C[C@@H]1C(=O)N(c2ccccc2)C(=O)[C@H]31`
17.8 µM (inactive)

What reported GI50 corresponds to `CC(=O)Nc1ccc(S(=O)(=O)Nc2cnc3ccccc3n2)cc1` on KM12?
> 100 µM (inactive)

So what GI50 did COc1ccc(C2=NN(C(=O)c3ccc(Cl)cc3)C(O)(c3cc(F)c(Cl)cc3Cl)C2)cc1 (configuration not stated) get with KM12?
24.5 µM (inactive)

Recorded GI50 for `Cc1ccc(O)c(C(c2cccc(C(c3cc(C)ccc3O)c3cc(C)ccc3O)c2)c2cc(C)ccc2O)c1` with KM12, please?
1.65 µM (inactive)

Form field - read-out: GI50; system: KM12; submitted item: `O=C(C#Cc1cnc(O)nc1O)c1ccccc1`
15.2 µM (inactive)

Form entry - test system: KM12; read-out: GI50; molecule: `CC(=O)O[C@H]1[C@@H](N2CCCCC2)C[C@H]2[C@@H]3CC=C4C[C@@H](N5CCCC5)CC[C@]4(C)[C@H]3CC[C@@]21C`
> 100 µM (inactive)

Missing value: GI50, KM12, entry Cc1nccc2c1[nH]c1cc(O)ccc12 [HARMOL HYDROCHLORIDE] . Fill in?
55.8 µM (inactive)

* * *

test system: DLD-1; assay: NCI tumour cell line growth inhibition, 48 h
The source made the active and inactive calls. Cut-off read from the data, not from the text of the source: active = GI50 up to about 1.1 µM and inactive = higher.
Assign GI50 to each entry below.

Which GI50 value belongs to CCCC(Sc1ccccc1)P(=O)(c1ccccc1)c1ccccc1 (stereo not drawn) ?
19.6 µM (inactive)

Reported GI50 for `NCCOCn1cc(Cc2cccc(OCc3ccccc3)c2)c(=O)[nH]c1=O` : what is it?
> 100 µM (inactive)

I would be grateful if you could share the reported GI50 for `CC(=O)OCCOCNC(=S)N/N=C(\C)c1ccco1` .
> 100 µM (inactive)

Endpoint output: GI50 of `CCS/C(=N\c1ccccc1)SC` . Value?
> 100 µM (inactive)

What measured GI50 goes with `CC(=O)Nc1ccc(S(=O)(=O)Nc2cnc3ccccc3n2)cc1` ?
> 100 µM (inactive)

Need GI50, item `CCc1cccc(C)c1NC(=O)CCc1nnc(SC)o1`
> 100 µM (inactive)

Tell me the measured GI50 of `O=C(Nc1c(Cl)cc([N+](=O)[O-])cc1Cl)/C(=N\Nc1cccc(Cl)c1)c1c(O)c2ccccc2oc1=O` , please.
42.9 µM (inactive)

So what's the measured GI50 for this one? `COc1cc(/C=C(\NC(=O)c2ccccc2)c2nc3c(O)nc(S)nc3[nH]2)cc(OC)c1OC`
> 100 µM (inactive)

I am curious: what GI50 value has been reported for `CC(C)CS(=O)(=O)/C(=C(\c1ccc(Br)cc1)S(=O)(=O)CC(C)C)c1ccc(Br)cc1` ?
> 100 µM (inactive)

Value lookup for GI50; key = `COC(=O)[C@@]1(C)C(=O)CC[C@@H]1C=O`
> 100 µM (inactive)

What value of GI50 has been recorded for this entry: CC(=O)C1=C(C)NC2C=CC=CN12 (stereo not drawn)
> 100 µM (inactive)

What does the data say about its GI50? Entry: `COC(=O)N/N=C/c1oc(-c2ccccc2)c(-c2ccccc2)c1[N+](=O)[O-]`
> 100 µM (inactive)

// returns reported GI50 for input `O=C1C/C(=C/c2ccc(/C=C3/CC(=O)N(c4cccc(Br)c4)C3=O)cc2)C(=O)N1c1cccc(Br)c1`
> 100 µM (inactive)
